Tested on: Plasmodium berghei
Test: Luciferase/luciferin-expressing antifolate-resistant parasites were used to infect a culture of HepG2 cells that were pre-incubated with compounds. Infected hepatocytes emit light due to the luciferase reaction. Assay results are presented as the percent inhibition of light emission compared to control. […]
Assay type: functional
Settings: sporozoite, PBLUC_HILL_SLOPE 1.43, PBLUC_R_SQUARED 0.653, read-out: LUCIFERASE INFECTION ASSAY - IC50
quantityKind: pIC50
# log scale: pIC50 equals minus log10 of the concentration in mol/L

Problem: Give a short answer stating reported pIC50 for COc1cccc(N2CCN(CC(=O)c3c[nH]c4ccccc34)CC2C)c1 (stereo unspecified) .
Solution: 5.33
